Known SPOT peptide array binding signal intensity of a selection of binders
- target: CaSla1-D1-D2
- protocol: SPOT peptide array binding signal intensity (averaged, normalized) (arbitrary units (background-subtracted, floor 0; scale differs between SH3 domains)); higher = stronger binding of the SH3 domain to the peptide
Answer with the value's number alone.

binder: VPKEPAPAPPPEPDM
meas.value: 9

Name the reported SPOT peptide array binding signal intensity value associated with the binder LTRRFPFLFPFDTRM 30.5
